Tested on: HL-60(TB)
experiment summary: NCI one-dose SRB growth assay
Format: cell-based
setup conditions: Homo sapiens; HL-60(TB) (Leukemia), 10^-5 M, 48 h; read-out: % Growth Inhibition (GI %)
The following molecules are shown together with reported inhibition at 10 µM values.
measurement kind: inhibition at 10 µM

[
  {
    "molecule": "O=C(O)c1cn(C2CC2)c2cc(N3CCN(S(=O)(=O)c4ccc(Cl)cc4Cl)CC3)c(F)cc2c1=O",
    "study system": "HL-60(TB)",
    "measurement kind": "inhibition at 10 µM",
    "reading": "13.1%"
  },
  {
    "molecule": "CCn1cc(C(=O)O)c(=O)c2cc(F)c(N3CCN(S(=O)(=O)c4c(C)cc(C)cc4C)CC3)cc21",
    "study system": "HL-60(TB)",
    "measurement kind": "inhibition at 10 µM",
    "reading": "26.9%"
  },
  {
    "molecule": "CCn1cc(C(=O)O)c(=O)c2cc(F)c(N3CCN(S(=O)(=O)c4ccc(Cl)cc4)CC3)cc21",
    "study system": "HL-60(TB)",
    "measurement kind": "inhibition at 10 µM",
    "reading": "91%"
  },
  {
    "molecule": "O=c1[nH]cc(F)c(=O)[nH]1 [Compound 5-FU, 5-fluorouracil, reference compound]",
    "study system": "HL-60(TB)",
    "measurement kind": "inhibition at 10 µM",
    "reading": "47.9%"
  }
]
